method.notes: Solubility in supporting electrolyte / water
Assay type: physicochemical
measurement.context: 1.0 M KCl solution, saline or isotonic; in 1.0 M KCl
observed.property: solubility (mM)
Report the figure in mM without appending any unit label.

Problem: Fill in the blank: the reported solubility of O.O=S(=O)([O-])c1cc(O)c(O)c(S(=O)(=O)[O-])c1.[Na+].[Na+] [BQDS, reference compound] is ____.
Result: 1280
